Molecular target: hQC (Homo sapiens)
Sequence (Q16769 29-361): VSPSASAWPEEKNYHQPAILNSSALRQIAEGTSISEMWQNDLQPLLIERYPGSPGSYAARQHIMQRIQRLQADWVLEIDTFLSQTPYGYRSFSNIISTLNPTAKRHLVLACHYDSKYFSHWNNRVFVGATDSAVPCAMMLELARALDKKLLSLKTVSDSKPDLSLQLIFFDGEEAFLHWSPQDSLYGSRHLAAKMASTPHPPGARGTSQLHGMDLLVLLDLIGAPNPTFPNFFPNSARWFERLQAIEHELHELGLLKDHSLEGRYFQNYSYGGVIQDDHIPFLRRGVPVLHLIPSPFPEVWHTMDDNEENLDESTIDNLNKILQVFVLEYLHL
Test: Fluorometric assay of glutaminyl cyclase (QC) inhibition, H-Gln-βNA or H-Gln-AMC substrate
Assay type: biochemical
Conditions: read-out: IC50
Property: IC50 (µM)
Numbers only, in µM.

[[record]]
compound = "O=C1N/C(=N/CCc2c[nH]c3ccccc23)C(c2ccc[nH]2)N1CCCn1ccnc1 (centres unmarked)"
scale_unit = "µM"
test_value = 6.7

[[record]]
compound = "O=C1CCCN1CCC/N=C1\\NC(=S)N(c2ccc3[nH]cnc3c2)C1c1ccc(Br)cc1 (centres unmarked)"
scale_unit = "µM"
test_value = 5.8

[[record]]
compound = "O=C1N/C(=N\\C(c2ccccc2)c2ccccc2)C(c2cccc(F)c2)N1CCCn1ccnc1 (centres unmarked)"
scale_unit = "µM"
test_value = 5.8

[[record]]
compound = "O=C1N/C(=N/CCc2c[nH]c3ccccc23)C(c2ccccc2)N1CCCn1ccnc1 (centres unmarked)"
scale_unit = "µM"
test_value = 4.9

[[record]]
compound = "O=C1N/C(=N/c2ccc3c(c2)OCCO3)C(c2ccc(Br)cc2)N1c1ccc2[nH]cnc2c1 (centres unmarked)"
scale_unit = "µM"
test_value = 0.004


For each of the compounds below, note its IC50.
1. O=C(C/N=C1/NC(=O)N(CCCn2ccnc2)C1c1cccc(F)c1)N1CCc2ccccc2C1 (centres unmarked)
2. CN(C)c1ccc(C2/C(=N/C3CCc4ccccc43)NC(=O)N2c2ccc3[nH]cnc3c2)cc1 (centres unmarked)
3. O=C1N/C(=N\C2CCCc3ccccc32)C(c2cc(Br)cs2)N1c1ccc2nc[nH]c2c1 (centres unmarked)

A:
[4, 0.004, 2.2]
